Numbers sourced from patent US4177277A.

system: angiotensin-converting enzyme of rabbit lung (Oryctolagus cuniculus, UniProt P12822)
Construct: isolated angiotensin converting enzyme from rabbit lungs; from tissue; host or cells: rabbit lung
Sequence (P12822 34-1310): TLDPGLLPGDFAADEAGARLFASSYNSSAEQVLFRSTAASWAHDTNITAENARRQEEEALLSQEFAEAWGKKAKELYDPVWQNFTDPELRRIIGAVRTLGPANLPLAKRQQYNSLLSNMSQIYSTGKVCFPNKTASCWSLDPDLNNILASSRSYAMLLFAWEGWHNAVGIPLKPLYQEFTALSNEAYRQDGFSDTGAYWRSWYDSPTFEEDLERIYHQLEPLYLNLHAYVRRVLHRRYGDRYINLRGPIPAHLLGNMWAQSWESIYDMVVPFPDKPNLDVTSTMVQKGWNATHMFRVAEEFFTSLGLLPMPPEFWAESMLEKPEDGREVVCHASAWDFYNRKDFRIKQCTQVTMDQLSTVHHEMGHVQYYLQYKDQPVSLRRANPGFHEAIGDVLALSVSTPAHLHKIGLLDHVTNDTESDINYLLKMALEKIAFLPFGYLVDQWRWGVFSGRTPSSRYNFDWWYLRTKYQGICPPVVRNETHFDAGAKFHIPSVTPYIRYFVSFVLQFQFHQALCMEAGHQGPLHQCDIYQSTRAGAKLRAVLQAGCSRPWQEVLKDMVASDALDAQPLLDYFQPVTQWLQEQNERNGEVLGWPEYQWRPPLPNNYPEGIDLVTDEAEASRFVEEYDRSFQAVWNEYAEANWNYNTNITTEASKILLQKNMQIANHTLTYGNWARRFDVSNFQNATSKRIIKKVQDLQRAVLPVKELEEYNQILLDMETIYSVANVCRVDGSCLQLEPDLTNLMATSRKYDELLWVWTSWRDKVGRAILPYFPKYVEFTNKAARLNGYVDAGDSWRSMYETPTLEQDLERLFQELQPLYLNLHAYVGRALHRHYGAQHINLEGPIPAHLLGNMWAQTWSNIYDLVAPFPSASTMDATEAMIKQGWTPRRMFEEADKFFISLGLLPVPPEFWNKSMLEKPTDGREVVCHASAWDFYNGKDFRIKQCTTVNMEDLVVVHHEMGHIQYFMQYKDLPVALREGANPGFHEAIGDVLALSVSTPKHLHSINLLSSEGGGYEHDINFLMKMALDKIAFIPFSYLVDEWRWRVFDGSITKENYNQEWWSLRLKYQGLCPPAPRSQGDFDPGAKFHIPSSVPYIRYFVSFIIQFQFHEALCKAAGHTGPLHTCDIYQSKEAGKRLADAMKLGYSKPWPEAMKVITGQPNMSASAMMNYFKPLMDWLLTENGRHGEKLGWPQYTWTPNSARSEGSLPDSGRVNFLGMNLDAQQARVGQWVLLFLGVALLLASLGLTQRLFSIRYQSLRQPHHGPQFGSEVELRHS
test_summary: Inhibition of isolated angiotensin-converting enzyme of rabbit lung (cleavage of hippuryl-L-histidyl-L-leucine)
Assay type: biochemical
assay_conditions: 5 mM hippuryl-L-histidyl-L-leucine, pH 8.3, 30 minutes at 37° C., read-out: I50 (concentration producing a 50% inhibition of angiotensin-converting enzyme) (converted)
Non-standard residues stand in square brackets, D forms with d. Residues, ends and D or L forms follow the SMILES beside them.
quantity_kind: IC50 (nM)

(I) N[C@@H](CS)C(=O)N1CCC[C@H]1C(=O)O [L-Cysteinyl-L-proline] (H-Cys-Pro-OH)
(II) NCCCC(CS)C(=O)N1CCC[C@H]1C(=O)O (mixture of isomers)
(III) CC(=O)NC(CSC(C)=O)C(=O)N1CCC[C@H]1C(=O)O (mixture of isomers) [N,S-Diacetyl-DL-cysteinyl-L-proline]
(IV) CC(=O)NC(CS)C(=O)N1CCC[C@H]1C(=O)O (mixture of isomers) [N-Acetyl-DL-cysteinyl-L-proline]
(V) N[C@H](CS)C(=O)N1CCC[C@H]1C(=O)O [D-Cysteinyl-L-proline] (H-[dC]-Pro-OH)
q: hey, can you rank those molecules up there by IC50? biggest number first please State the ranking by listing the labels in the requested order.
a: III, I, IV, V, II
